- Tested on: HPPD polypeptides (wild-type SEQ ID NO:1 and mutants)
- experimental-context: in the presence of diketonitrile (DKN), 60 μM inhibitor, high substrate concentration; total change in signal normalized to no inhibitor
property-label: Residual turnover (%)
Lab book: enter the figure in %, no units written.

Task: Look up Residual turnover: 7 (protein, mutant HPPD polypeptide) MADLYENPMGLMGFEFIEFASPTPGTLEPIFEIMGFTKVATHRSKNVHLYRQGEINLILNNEPNSIASYFAAEHGPSVCGMAFRVKDSQKAYNRALELGAQPIHIDTGPMELNLPAIKGIGGAPLYLIDRFGEGSSIYDIDFVYLEGVERNPVGAGLKVIDHLTHNVYRGRMVYWANFYEKLFNFREARYFDIKGEYTGLTSKAMSAPDGMIRIPLNEESSKGAGQIEEFLMQFNGEGIQHVAFLTDDLVKTWDALKKIGMRFMTAPPDTYYEMLEGRLPDHGEPVDQLQARGILLDGSSVEGDKRLLLQIFSETLMGPVFFEFIQRKGDDGFGPDSFKALFESIERDQVRRGVLTAD
Result: 92
